- Assayed system: T1, LIN7B, Q9HAP6
- T1 sequence (Q9HAP6 88-185, limits assumed, looked up): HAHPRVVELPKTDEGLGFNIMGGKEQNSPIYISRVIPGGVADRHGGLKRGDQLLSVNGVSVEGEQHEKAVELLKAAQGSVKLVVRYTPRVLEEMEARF
- Test description: holdup assay
- Parameters: key: below the threshold = too weak to quantify, mostly under pKd 3.1 to 4
- Test conditions: plain residues with an end cap or a label only (N-terminal biotin on a linker: ttds)
Attribute measured: pKd

Ask: Consider the binder DKDPHSETAL [TMIGD1, Q6UXZ0] and give its recorded pKd.
Reply: below the threshold

Ask: Provide one value: measured pKd of QRQARSETLV [HPV59-E6, Q81964]
Reply: below the threshold

Ask: Provide only the value of recorded pKd for NDPAWDETNL [ARHGEF7, Q14155;Q14155-1]
Reply: below the threshold
